target: Proton Pump (H^+/K^+-ATPase) (Sus scrofa, UniProt P19156); test: Inhibitory effects on proton pump (H^+/K^+-ATPase) activity; conditions: hog gastric vesicles; K^+ stimulated H^+/K^+-ATPase activity; 30 minutes at 37° C.
Sequence (P19156 2-1034 limits assumed): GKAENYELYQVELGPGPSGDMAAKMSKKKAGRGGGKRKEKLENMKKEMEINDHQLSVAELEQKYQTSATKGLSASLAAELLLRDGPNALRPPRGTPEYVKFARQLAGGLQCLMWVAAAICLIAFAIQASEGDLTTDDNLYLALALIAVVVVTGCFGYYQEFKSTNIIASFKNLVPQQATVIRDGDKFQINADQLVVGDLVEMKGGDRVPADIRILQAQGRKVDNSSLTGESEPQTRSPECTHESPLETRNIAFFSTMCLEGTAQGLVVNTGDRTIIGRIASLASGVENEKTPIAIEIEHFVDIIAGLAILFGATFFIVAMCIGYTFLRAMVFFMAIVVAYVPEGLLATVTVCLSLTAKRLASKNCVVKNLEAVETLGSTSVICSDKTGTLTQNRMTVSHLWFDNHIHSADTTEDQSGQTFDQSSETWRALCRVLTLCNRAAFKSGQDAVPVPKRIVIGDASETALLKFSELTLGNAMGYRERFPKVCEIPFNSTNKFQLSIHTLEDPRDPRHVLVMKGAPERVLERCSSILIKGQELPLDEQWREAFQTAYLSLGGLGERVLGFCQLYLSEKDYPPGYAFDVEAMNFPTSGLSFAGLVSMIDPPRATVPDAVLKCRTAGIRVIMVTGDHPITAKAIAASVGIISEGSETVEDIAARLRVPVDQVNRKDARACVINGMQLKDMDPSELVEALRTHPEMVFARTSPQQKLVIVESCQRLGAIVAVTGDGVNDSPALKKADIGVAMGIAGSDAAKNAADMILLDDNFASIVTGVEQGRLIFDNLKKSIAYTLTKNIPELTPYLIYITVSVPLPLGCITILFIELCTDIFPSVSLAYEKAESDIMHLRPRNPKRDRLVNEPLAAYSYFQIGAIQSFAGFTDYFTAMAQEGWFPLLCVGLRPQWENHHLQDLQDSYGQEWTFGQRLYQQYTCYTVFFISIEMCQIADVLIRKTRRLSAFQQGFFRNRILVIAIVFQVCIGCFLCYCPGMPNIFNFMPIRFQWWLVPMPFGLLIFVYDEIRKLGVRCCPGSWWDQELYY
Sequence (P18434 whole entry partner): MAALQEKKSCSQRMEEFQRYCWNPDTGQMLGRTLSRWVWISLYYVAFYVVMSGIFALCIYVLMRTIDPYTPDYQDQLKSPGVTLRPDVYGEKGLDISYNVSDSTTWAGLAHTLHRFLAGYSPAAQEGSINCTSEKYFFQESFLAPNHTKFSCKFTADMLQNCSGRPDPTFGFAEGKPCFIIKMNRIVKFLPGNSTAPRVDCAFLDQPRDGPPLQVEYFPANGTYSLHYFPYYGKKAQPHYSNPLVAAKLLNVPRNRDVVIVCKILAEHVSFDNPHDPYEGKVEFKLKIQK
Where a name gives a salt, the structure may show the parent alone.
Item-by-item account of IC50
Reply with just the number (in nM).

# example entries with known answers
1) Cc1ccc(Cn2c(C)c(C)c3ccnc(N(C)Cc4ccc(F)cc4)c32)cc1 [Example 152, hydrochloride]
170
2) Cc1c(C)n(Cc2cccc(F)c2)c2c(N3CCc4ccccc4C3)nc(C(=O)O)cc12 [Example 737]
25
3) C=CCn1c(C)c(C)c2ccnc(COc3ccc(F)cc3)c21 [Example 2, hydrochloride]
410
4) CCc1[nH]c2c(N3CCc4ccccc4C3)nccc2c1C [Example 591]
499
5) Cc1c(C)n(CC(C)C)c2c(NCc3ccc(F)cc3)nccc12.Cl [Example 208, hydrochloride]
94

Record Cc1c(C)n(CC2CC2)c2c(N3CCc4ccccc4C3)nccc12 [Example 497, hydrochloride] / Proton Pump (H^+/K^+-ATPase) (Sus scrofa, UniProt P19156), IC50 recorded as 320

Record Cc1c(C)n(Cc2cccc(F)c2)c2c(N3CCc4ccccc4C3)nc(CN3CCN(C)CC3)cc12 [Example 873, hydrochloride] / Proton Pump (H^+/K^+-ATPase) (Sus scrofa, UniProt P19156), IC50 recorded as 26

Record Cc1cc2ccnc(N3CCc4ccccc4C3)c2n1Cc1cccc(F)c1 [Example 613, hydrochloride] / Proton Pump (H^+/K^+-ATPase) (Sus scrofa, UniProt P19156), IC50 recorded as 375

Record Cc1c(C)n(Cc2cccc(F)c2)c2c(N3CCc4ccccc4C3)nc(CNC3CCC3)cc12 [Example 870, hydrochloride] / Proton Pump (H^+/K^+-ATPase) (Sus scrofa, UniProt P19156), IC50 recorded as 43

Record COCCn1c(C)c(C)c2ccnc(N(C)Cc3ccc(F)cc3)c21 [Example 143, hydrochloride] / Proton Pump (H^+/K^+-ATPase) (Sus scrofa, UniProt P19156), IC50 recorded as 300

Record Cc1c(C)n(CC(C)C)c2c(N3CCc4ccccc4C3)nc(C(=O)N3CCNCC3)cc12 [Example 815, hydrochloride] / Proton Pump (H^+/K^+-ATPase) (Sus scrofa, UniProt P19156), IC50 recorded as 29

Record C=CCn1c(C)c(C)c2cc(C(=O)NCc3ccc4c(c3)OCO4)nc(N3CCc4ccccc4C3)c21 [Example 760, hydrochloride] / Proton Pump (H^+/K^+-ATPase) (Sus scrofa, UniProt P19156), IC50 recorded as 373

Record Cc1c(C)n(Cc2ccccc2)c2c(NCc3ccc(F)cc3)nccc12 [Example 214, hydrochloride] / Proton Pump (H^+/K^+-ATPase) (Sus scrofa, UniProt P19156), IC50 recorded as 290

Record CCCn1c(C)c(C)c2cc(C#N)nc(N3CCc4ccccc4C3)c21 [Example 697] / Proton Pump (H^+/K^+-ATPase) (Sus scrofa, UniProt P19156), IC50 recorded as 3200

Record Cc1c(C)n(CCc2ccc(S(C)(=O)=O)cc2)c2c(N3CCc4ccccc4C3)nccc12 [Example 512, hydrochloride] / Proton Pump (H^+/K^+-ATPase) (Sus scrofa, UniProt P19156), IC50 recorded as 130

Record Cc1cccc(Cn2c(C)c(C)c3ccnc(CN(C)c4ccc(F)cc4)c32)c1 [Example 126, hydrochloride] / Proton Pump (H^+/K^+-ATPase) (Sus scrofa, UniProt P19156), IC50 recorded as 397
